All values here come from ChEMBL document CHEMBL1157539.

tested on: Plasmodium falciparum; test: GSK_TCMDC: Inhibition of Plasmodium falciparum 3D7 in whole erythrocytes, using parasite LDH activity as an index of growth.; format: functional, organism-based; details: Plasmodium falciparum, 3D7
Each entry belongs to exactly one class, chosen by where its XC50 falls: lower level: < 800 nM; middle level: ≥ 800 nM and < 900 nM; upper level: ≥ 900 nM

1) Cc1cc(N[C@@H](CC(C)C)C(=O)NCCOc2ccccc2)nc(NCC2CCCCC2)n1 :: upper level
2) CN(C)CC(O)C(c1ccccc1)c1ccc(Cl)cc1 (centres undefined) :: lower level
3) COc1ccc2c(c1)CCCC2NCCCCNC(=O)c1ccc(NC(=O)c2ccc(Cl)cc2)cc1 (centres undefined) :: lower level
4) CCN1CCC(NCc2ccc(-c3ccc(Cl)cc3)cc2)CC1 :: upper level
5) CN(C)Cc1cccc(CNC(=O)c2sccc2OCc2ccc(Cl)cc2)c1 :: middle level
6) NC(=O)c1ccc(-n2cnc3cc(F)ccc32)cc1OCc1ccccc1C(F)(F)F.NC(=O)c1ccc(-n2cnc3ccc(F)cc32)cc1OCc1ccccc1C(F)(F)F :: lower level
7) CN1CCN(CC(=O)Nc2ccc(-c3csc(-c4nc5ccccc5[nH]4)c3)cc2)CC1 :: upper level
8) O=C(CCCCCNC(=O)c1ccc(O)c(-c2ccc(Cl)c(Cl)c2)c1)NCCc1ccc(Cl)c(Cl)c1 :: lower level
9) Cc1nc(NCc2ccccc2)cc(Nc2cc(NCc3ccccc3)nc(C)n2)n1 :: upper level
10) COc1ccc(-c2nonc2NC(=O)c2ccc(OC(C)C)cc2)cc1OC :: lower level
11) CCOc1cc(C(=O)Nc2ccc3nc(N4CCN(C)CC4)cc(C)c3c2)cc(OCC)c1OCC :: middle level
12) COc1ccc(CN2CCC(NCc3cccc(C(F)(F)F)c3)CC2)cc1 :: lower level
13) O=c1ccc2ccc(F)c3c2n1CC3CN1CCC(NCc2cccc(-c3cccs3)c2)CC1 (centres undefined) :: middle level
14) N#Cc1ccc(N2CCN(Cc3cccc(-c4cccc(-c5nc6cc(F)ccc6[nH]5)c4)c3)CC2)nc1 :: upper level
15) CC(C)(CNCc1ccc(F)c(F)c1)c1nc(-c2ccnc(N)n2)c(-c2ccc(Cl)c(O)c2)[nH]1 :: lower level
16) CC1(C)N=C(N)N=C(Nc2ccc(F)c(F)c2)N1 :: lower level
17) CN(CCN)Cc1cccc(-c2ccc(-c3nc4cc(C(F)(F)F)ccc4[nH]3)s2)c1 :: upper level

---

system: Plasmodium falciparum; experiment: GSK_TCMDC: Inhibition of Plasmodium falciparum 3D7 in whole erythrocytes, using parasite LDH activity as an index of growth.; type: functional, organism-based; details: Plasmodium falciparum, 3D7
Documented XC50 across a set of molecules
Property Name: XC50 (nM)

1) Cc1ccc(F)c(C(=O)Nc2cccc(-c3nn4ccccc4c3-c3ccnc(Nc4cccc(F)c4)n3)c2)c1F :: 1050
2) CCOC(=O)c1c(NC(NC(=O)c2ccc(C(C)(C)C)cc2)C(Cl)(Cl)Cl)sc2c1CCCC2 (stereo not drawn) :: 809
3) CC[C@H](C)CNC(=O)c1ccc(-c2cccc(CN3CCC(N4CCCC4)CC3)c2)nc1 :: 787
4) COc1ccc2sc(CNCCCNc3cc(=O)c4ccccc4[nH]3)c(Cl)c2c1 :: 1070
5) CCNc1cc(C(=O)N[C@@H](Cc2cccc(F)c2)[C@H](O)CNC(C)CCCC(C)C)cc(N2CCCCS2(=O)=O)c1 (stereo partly drawn) :: 596
6) O=C(NCC1CCC(C(=O)NCCc2ccc(Cl)c(Cl)c2)CC1)c1ccc(O)c(-c2ccc(Cl)c(Cl)c2)c1 (stereo not drawn) :: 895
7) CCCCOc1cc(OC)c2ccccc2c1CCNCCCCNCCc1c(OCCCC)cc(OC)c2ccccc12 :: 1050
8) CCCN(CC1CC1)c1ncc(-c2cccc(CNCc3ccccc3O)c2)cn1 :: 700
9) CC[C@H]1CN2CC[C@H]1C[C@H]2[C@H](O)c1ccnc2ccc(C#N)cc12 :: 147
10) O=C(O[C@H]1CN[C@H](C#Cc2cc3c(Nc4ccc(OCc5cccc(F)c5)c(Cl)c4)ncnc3s2)C1)N1CCCC1 :: 707
11) CC(C)(C)C(=O)Nc1ccccc1Oc1ccc(Cl)cc1 :: 7.48
12) COc1cc2ncnc(Nc3ccc(OCc4ccccc4)c(OCc4ccccc4)c3)c2cc1OC :: 738
13) COc1ccc(C(=O)C2CCN(CCCCNC(=O)c3ccc(NC(=O)c4cc(Cl)cc(Cl)c4)cc3)CC2)cc1 :: 173
14) CC(C)(C)c1ccc(CN2CCC(NC(=O)c3ccc(-c4ccccc4Cl)s3)CC2)cc1 :: 1350
15) O=C(NCC1CCC(CNCCCc2ccccc2)CC1)Nc1ccc(Cl)c(Cl)c1 (stereo not drawn) :: 767
16) Oc1ccc(C2CNCCc3c2cc(O)c(OCc2ccccc2)c3Cl)cc1 (stereo not drawn) :: 716
17) CN(CCCN(C)c1cc(NC(=O)c2cccc(F)c2)ccn1)Cc1cccc(O)c1 :: 1920
18) O=C(/C=C/c1ccc(Cl)c(Cl)c1)N1CCC(CN2CCC(c3c[nH]c4cc(C(F)(F)F)ccc34)CC2)CC1 :: 796

---

Documented XC50 across a set of compounds
tested on: Plasmodium falciparum; assay: GSK_TCMDC: Inhibition of Plasmodium falciparum 3D7 in whole erythrocytes, using parasite LDH activity as an index of growth.; type: functional, organism-based; settings: Plasmodium falciparum, 3D7
Property Name: XC50 (nM)

1) COCCOc1ccc(Nc2nccc(-c3c(-c4cccc(NC(=O)c5c(F)cccc5F)c4)nn4ccccc34)n2)cc1F :: 950
2) O=C(Nc1ccc(OC2CCN(Cc3ccccc3)CC2)c(Cl)c1)c1ccc(F)cc1 :: 796
3) Cc1cccc2nc(-c3cccc(-c4cccc(NC(=O)Nc5ccc(F)c(F)c5F)c4)c3)[nH]c12 :: 108
4) CCCc1cc(C)ccc1OCCCON1C(NC(=O)OCC)=NC(NC(=O)OCC)=NC1(C)C :: 35.9
5) O=S(=O)(c1cccc(Cl)c1F)N(CCC(O)(C(F)(F)F)C(F)(F)F)Cc1cccc(O)c1 :: 918
6) O=C(NC1CCN(Cc2ccccc2)CC1)c1cc(C(=O)NC2CCN(Cc3ccccc3)CC2)cc(C(=O)NC2CCN(Cc3ccccc3)CC2)c1 :: 1040
7) Cn1c(-c2ccccc2)cc2c3c(N)nc(N)nc3ccc21 :: 888
8) COC(=O)c1cccc(CNCc2ccc(-c3cccc(-c4nc5cccc(C)c5[nH]4)c3)cc2)c1 :: 306
9) O=C(Nc1cccc(C(F)(F)F)c1)c1ccc(S(=O)(=O)NC2CCN(CC3CCCCC3)CC2)cc1 :: 1160

---

tested on: Plasmodium falciparum; assay: GSK_TCMDC: Inhibition of Plasmodium falciparum 3D7 in whole erythrocytes, using parasite LDH activity as an index of growth.; type: functional, organism-based; conditions: Plasmodium falciparum, 3D7
Property Name: XC50 (nM)

1) O=C(Cn1cc(C(F)(F)F)cc(Cl)c1=O)N1CCN(S(=O)(=O)c2ccc(Cl)cc2)CC1 :: 897
2) COc1cc2nc(N3CCN(C(=O)c4ccco4)CC3)nc(NCc3ccccc3)c2cc1OC :: 167
3) Cc1cnc(NCCc2ccc(F)cc2)nc1N[C@@H](CC(C)C)C(=O)Nc1ccccc1 :: 970
4) CCN(CCCN1CCCCC1)c1cc(C)nc(Nc2ccc(Oc3ccccc3)cc2)n1 :: 298
5) CCOc1ccc(-c2nonc2NC(=O)c2cccs2)cc1OCC :: 756
6) Cc1cccnc1CNc1nccc2c(C)c(C)[nH]c12 :: 849
7) Cc1ccc(NC(=O)c2ccc(NCCCN(C)Cc3ccccc3)c([N+](=O)[O-])c2)cc1F :: 701
8) Brc1ccc(Nc2nc3ccccc3nc2Nc2ccc(Br)cc2)cc1 :: 783
9) COc1ccc(C(=O)N[C@@H](CC(C)C)C(=O)NC2CC[C@@H](C)N(C(=O)Nc3ccc(Cl)cc3)CC2=O)cc1OCCN1CCOCC1 (stereo partly specified) :: 152
10) c1cc(CN2CCN(c3ccncc3)CC2)cc(-c2cccc(-c3nc4ccccc4[nH]3)c2)c1 :: 126
11) COc1cc(CCNc2nc(NCc3cccc4ccccc34)nc(N3CCC(N)CC3)n2)ccc1O :: 787
12) O=C(NCC1CCN(CCN2CCC(c3cn(CCO)c4ccccc34)CC2)CC1)c1ccc(-c2ccc(C(F)(F)F)cc2)cc1 :: 438
13) O=C(Nc1ccc(Cl)cc1)N1CCN(C2CCCCC2)CC1 :: 986
14) c1ccc(CCNCc2cccc(-c3ccc(CNc4ccc5ncccc5c4)cc3)c2)cc1 :: 810
15) Cc1nc2ccc3ccc(CNc4ccc5c(c4)CN([C@H](CCC(=O)O)C(=O)O)C5=O)cc3c2c(=O)[nH]1 :: 860
16) O=C(Cn1c(SCc2cccc(F)c2F)cc(=O)c2ccccc21)N(CCc1c[nH]cn1)Cc1ccc(-c2ccc(C(F)(F)F)cc2)cc1 :: 801
17) O=C(NC1CCC(CN2CCC(c3c[nH]c4ccccc34)CC2)CC1)c1cc(-c2ccccc2)c(C(F)(F)F)s1 (stereo unspecified) :: 167
18) Cc1cccc2sc(N(CCCn3ccnc3)C(=O)C=Cc3cccs3)nc12 :: 1280
19) O=C(/C=C/c1ccc([N+](=O)[O-])cc1)N1CCC(NS(=O)(=O)c2cccc(C(F)(F)F)c2)CC1 :: 847
20) CN1CCN(c2ccc(Nc3nccc(-c4c(-c5cccc(NC(=O)c6c(F)cccc6F)c5)nn5ccccc45)n3)cc2)CC1 :: 112
21) Cc1[nH]c2ccc(NS(C)(=O)=O)cc2c1C1CCN(CC2CCN(C(=O)/C=C/c3ccc(Cl)c(Cl)c3)CC2)CC1 :: 684
22) CC(C)(C)OC(=O)NCc1ccc(Nc2nnc(-c3ccc(OCC(=O)NC[C@@H]4CC[C@H]5C[C@@H]4C5(C)C)c([N+](=O)[O-])c3)o2)cc1 :: 911
23) O=[N+]([O-])c1ccc2c(c1)c1ccccc1n2Cc1ccccc1O :: 1110
24) O=C(Nc1ccc(C(=O)Nc2ccc(C3=NCCN3)cc2)cc1)Nc1ccc(C2=NCCN2)cc1 :: 180
25) COc1ccc2[nH]ccc(=NN=Cc3ccc(Cl)cc3)c2c1 :: 211
26) O=S(=O)(Nc1ccc(CCN2CCC(N3CCCCC3)CC2)cc1)c1cccc(C(F)(F)F)c1 :: 702
27) CCOc1ccc(N(CC)S(=O)(=O)c2cc(Br)cc3c2N(C(=O)C2CC2)CC3)cc1 :: 134
28) CS(=O)(=O)c1ccc(CNCc2ccc(-c3ccc(-c4nc5cc(C(F)(F)F)ccc5[nH]4)s3)cc2)cc1 :: 156
29) O=C(/C=C/c1ccc(Cl)cc1)NCCCCCN1CCCC(C(=O)Nc2cccc(Cl)c2)C1 (stereo unspecified) :: 208
30) CN(C)c1ccc(Br)c(Br)c1 :: 975
31) COC1CCC(C(=O)Nc2ccc(-c3cccc(-c4nc5cccc(C)c5[nH]4)c3)cc2)CC1 (stereo unspecified) :: 585
32) CC(=O)Nc1nc(C(=O)Nc2cccc(-c3ccc(-c4nc5cc(F)ccc5[nH]4)cc3)c2)cs1 :: 288
33) CCC(CN1C(=O)C(c2ccccc2)(c2ccccc2)N=C1N)c1ccccc1 (stereo unspecified) :: 136
34) Cn1cncc1C(=O)Nc1cccc(-c2ccc(-c3nc4cc(F)ccc4[nH]3)cc2)c1 :: 735
35) Cc1cc(C)c(C)c(S(=O)(=O)N2CCCCC(c3ccc(F)c(F)c3)=N2)c1C :: 706
36) Cc1nn(-c2ccccc2)nc1C(=O)N(Cc1ccc(-c2ccc(CNCCc3ccc(S(C)(=O)=O)cc3)cn2)cc1)C(C)CN(C)C (stereo unspecified) :: 682
